- experimental.system: human adenosine A1 receptor (Homo sapiens)
- Construct: expressed in transfected cells; host or cells: HEK293 cells infected with BacMam (the same paragraph also labels the preparation CHO-hA1)
- Sequence (P30542 whole entry): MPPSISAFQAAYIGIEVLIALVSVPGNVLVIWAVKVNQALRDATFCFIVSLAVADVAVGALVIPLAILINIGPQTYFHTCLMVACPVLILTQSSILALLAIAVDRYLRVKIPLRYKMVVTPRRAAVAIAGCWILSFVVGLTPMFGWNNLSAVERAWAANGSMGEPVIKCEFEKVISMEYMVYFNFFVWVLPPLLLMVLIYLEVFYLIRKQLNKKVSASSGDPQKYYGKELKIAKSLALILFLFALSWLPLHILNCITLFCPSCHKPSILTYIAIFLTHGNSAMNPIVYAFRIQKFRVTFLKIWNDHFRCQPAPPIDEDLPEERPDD
- run.description: Inhibition binding assay, human adenosine A1 receptor membranes, [3H]DPCPX
- condition.details: 1 nM [3H]DPCPX, 25° C., 1 h; IC50 converted to Ki with Cheng-Prusoff; read-out: A1 pKi (converted)
- Method: Inhibition binding assays were performed using 0.2 μg of membranes prepared from HEK293 cells infected with BacMam human adenosine A2A receptor or 1.4 μg of membranes prepared from HEK293 cells infected with BacMam human adenosine A1 receptor. […] Bound radioactivity was determined by liquid scintillation counting and inhibition curves were analysed using a four-parameter logistic equation. […]
value.kind: Ki (nM)

Sample records with Ki:
1. COc1ncccc1Cn1nc2c(-c3cc(C)nc(C)c3)c(-c3ccccc3)nc(N)n2c1=O = 63.1
2. Cc1cc(-c2c(-c3ccccc3)nc(N)n3c(=O)n(C[C@@H]4COCCN4C)nc23)cc(C)n1 = 200
3. CCCn1nc2c(-c3cc(C)nc(C)c3)c(-c3ccccc3)nc(N)n2c1=O = 501
4. Cc1cc(-c2c(-c3ccccc3)nc(N)n3c(=O)n(CCCF)nc23)cc(C)n1 = 316
5. Cc1cc(-c2c(-c3ccccc3)nc(N)n3c(=O)n(CCC(F)F)nc23)cc(C)n1 = 1000

[A] Cc1cc(-c2c(-c3ccccc3)nc(N)n3c(=O)n(Cc4cccc(F)c4Cl)nc23)cc(C)n1
[B] Cc1cc(-c2c(-c3ccccc3)nc(N)n3c(=O)n(Cc4ccc(F)cn4)nc23)cc(N(C)C)n1
[C] Cc1cc(-c2c(-c3ccccc3)nc(N)n3c(=O)n(CCc4ccccc4)nc23)cc(C)n1
Q: Hi! Can you put these in order of Ki, lowest number first? Output the labels ranked as instructed.
Ans: A, C, B
(A: 10 nM, C: 126 nM, B: 631 nM)

[A] CNC(=O)c1cc(NCCn2nc3c(-c4cc(C)nc(C)c4)c(-c4ccccc4)nc(N)n3c2=O)ccc1Cl
[B] Cc1cc(-c2c(-c3ccccc3)nc(N)n3c(=O)n(Cc4ccccc4CC4CCNCC4)nc23)cc(C)n1
Q: Kindly identify which of A and B has the larger recorded Ki value. Kindly state the label of the option you pick.
Ans: A
(A: 1000 nM, B: 3.98 nM)
